target: hERG channel (Homo sapiens, UniProt Q12809); experiment: Cardiovascular safety, hERG channel in vitro
Sequence (Q12809 whole entry): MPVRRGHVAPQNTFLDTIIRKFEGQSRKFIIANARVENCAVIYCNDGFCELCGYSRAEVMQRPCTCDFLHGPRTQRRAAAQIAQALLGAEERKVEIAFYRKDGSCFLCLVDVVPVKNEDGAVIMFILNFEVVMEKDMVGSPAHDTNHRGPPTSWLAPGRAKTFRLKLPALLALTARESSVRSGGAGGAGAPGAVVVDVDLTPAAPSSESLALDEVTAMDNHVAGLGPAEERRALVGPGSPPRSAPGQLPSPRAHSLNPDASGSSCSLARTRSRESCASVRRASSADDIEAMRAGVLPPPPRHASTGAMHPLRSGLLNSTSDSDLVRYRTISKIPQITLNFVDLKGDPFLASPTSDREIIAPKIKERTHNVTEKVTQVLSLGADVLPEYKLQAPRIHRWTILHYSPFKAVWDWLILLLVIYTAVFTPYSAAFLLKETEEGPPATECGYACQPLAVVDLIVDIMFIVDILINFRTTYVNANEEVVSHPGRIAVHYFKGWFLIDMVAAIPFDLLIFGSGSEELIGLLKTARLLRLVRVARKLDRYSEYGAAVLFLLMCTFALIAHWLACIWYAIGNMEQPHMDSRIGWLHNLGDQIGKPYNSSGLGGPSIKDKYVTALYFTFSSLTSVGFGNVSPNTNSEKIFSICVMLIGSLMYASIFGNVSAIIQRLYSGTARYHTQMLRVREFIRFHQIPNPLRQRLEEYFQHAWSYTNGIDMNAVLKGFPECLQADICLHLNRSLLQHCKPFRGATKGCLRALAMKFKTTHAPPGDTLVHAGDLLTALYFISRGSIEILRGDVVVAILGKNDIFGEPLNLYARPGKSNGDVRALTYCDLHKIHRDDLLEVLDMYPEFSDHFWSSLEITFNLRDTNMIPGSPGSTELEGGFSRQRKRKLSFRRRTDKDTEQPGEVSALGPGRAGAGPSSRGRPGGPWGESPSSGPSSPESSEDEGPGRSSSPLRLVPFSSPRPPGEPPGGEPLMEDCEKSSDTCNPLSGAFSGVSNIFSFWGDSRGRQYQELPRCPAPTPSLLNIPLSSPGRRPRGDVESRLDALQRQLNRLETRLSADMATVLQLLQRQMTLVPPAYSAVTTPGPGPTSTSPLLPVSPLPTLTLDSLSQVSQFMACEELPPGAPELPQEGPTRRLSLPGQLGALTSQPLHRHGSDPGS

| molecule | IC50 |
| --- | --- |
| C(=C\[C@H]1CCNC1)/c1cncnc1 [Compound 1] | 285 µM |

----------
Assay: 13-week repeat-dose oral toxicity in rats
Format: in vivo, rat
Settings: male, rat, in vivo, po, 30 mg/kg/day
Procedure: Compound 1 was given to rats once daily for at least 13 weeks via oral gavage at doses of 30, 100, or 300 mg/kg/day. Two of 15 females receiving 300 mg/kg/day died. Clinical signs in males and females in this high-dose group included; reduced food consumption, anogenital staining, lacrimation, chromodacryorrhea, and tremors. […]
readoutKind: AUC (ng·h/mL)

| substanceSmiles | testValue |
| --- | --- |
| C(=C\[C@H]1CCNC1)/c1cncnc1 | 12100 |
